experiment: Half life of compound by UV-Visible spectrophotometric method; assay type: physicochemical
METRIC: half-life (min)
// units = min; emit number, no label

stdin: Fill in the blank: the reported half-life of COc1cc(COC(=O)N2C(=O)CCC(N3C(=O)c4cccc(OCC(=O)NCCCCNC(=O)C[C@@H]5N=C(c6ccc(Cl)cc6)c6c(sc(C)c6C)-n6c(C)nnc65)c4C3=O)C2=O)c([N+](=O)[O-])cc1OC (stereo partly specified) is ____.
stdout: 58
